For each record, write down the corresponding MRT0-t NPB.
experiment: Nonperfused brain (NPB) kinetics of phenolic metabolites after oral capsule; format: in vivo, Sprague–Dawley rats; conditions: nonperfused brain, oral capsule, 0-24 h, n = 3 per time point
Could you write the number and then its unit?

COMPOUND	MRT0-t NPB
O=C(O)[C@H]1O[C@@H](Oc2cc(O)cc(CCc3ccc(O)cc3)c2)[C@H](O)[C@@H](O)[C@@H]1O [dihydroresveratrol 3-O-glucuronide]	44 ± 1 h
O=S(=O)(O)Oc1ccc(CCO)cc1O [hydroxytyrosol 4′-O-sulfate]	26 ± 22 h
O=S(=O)(O)Oc1cc(CCO)ccc1O [hydroxytyrosol 3-O-sulfate]	7.1 ± 3.1 h

Now for another entry.
Any idea what MRT0-t NPB was measured for O=S(=O)(O)Oc1ccc(CCO)cc1 [tyrosol 4-O-sulfate] ?
7.4 ± 0.4 h
